Biological target: Flt3 (h) (Homo sapiens, UniProt P36888)
Sequence (P36888 27-993): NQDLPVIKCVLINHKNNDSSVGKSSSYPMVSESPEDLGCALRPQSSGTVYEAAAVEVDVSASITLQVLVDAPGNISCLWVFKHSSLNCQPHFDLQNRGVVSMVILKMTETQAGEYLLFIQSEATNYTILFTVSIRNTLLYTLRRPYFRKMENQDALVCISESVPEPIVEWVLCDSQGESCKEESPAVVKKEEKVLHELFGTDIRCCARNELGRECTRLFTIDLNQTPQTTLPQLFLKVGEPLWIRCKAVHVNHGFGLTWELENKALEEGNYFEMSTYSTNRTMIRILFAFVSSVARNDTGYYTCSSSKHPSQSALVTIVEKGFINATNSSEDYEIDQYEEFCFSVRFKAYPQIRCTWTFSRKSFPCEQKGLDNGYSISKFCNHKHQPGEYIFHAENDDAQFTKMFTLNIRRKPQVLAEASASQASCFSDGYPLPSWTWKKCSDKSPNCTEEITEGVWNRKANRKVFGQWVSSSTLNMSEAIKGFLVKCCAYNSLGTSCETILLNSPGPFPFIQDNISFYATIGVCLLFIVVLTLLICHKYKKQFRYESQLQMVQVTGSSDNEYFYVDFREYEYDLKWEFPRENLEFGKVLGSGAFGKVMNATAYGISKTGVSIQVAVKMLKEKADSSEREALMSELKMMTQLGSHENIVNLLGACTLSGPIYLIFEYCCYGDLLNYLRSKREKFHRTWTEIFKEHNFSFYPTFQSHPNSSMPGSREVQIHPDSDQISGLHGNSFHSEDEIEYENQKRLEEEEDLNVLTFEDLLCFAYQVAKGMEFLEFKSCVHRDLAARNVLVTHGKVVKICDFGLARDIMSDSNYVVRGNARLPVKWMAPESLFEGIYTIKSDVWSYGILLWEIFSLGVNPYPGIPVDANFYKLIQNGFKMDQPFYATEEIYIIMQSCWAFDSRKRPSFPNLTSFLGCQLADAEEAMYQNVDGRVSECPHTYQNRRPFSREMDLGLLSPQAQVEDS
OBSERVABLE: IC50 (nM)

A = C/C=C/C(=O)Nc1cc2cc(c1)Nc1nccc(n1)-c1cccc(c1)COC/C=C/COC2
B = C1=C/COCc2cccc(c2)-c2ccnc(n2)Nc2cc(cc(OC/C=C/CN3CCCC3)c2)COC/1
C = Nc1cc2cc(c1)Nc1nccc(n1)-c1cccc(c1)COC/C=C/COC2
D = O=C(/C=C/CN1CCCC1)Nc1cc2cc(c1)Nc1nccc(n1)-c1cccc(c1)COC/C=C/COC2
(Q) Ranking by IC50 (descending) is requested for the entries above. A ranking is expressed here by listing the labels in the requested order.
(A) B, C, A, D

I = C=CC(=O)Nc1cc2cc(c1)Nc1nccc(n1)-c1cccc(c1)COC/C=C/COC2
II = O=C(/C=C/C(=O)N1CCNCC1)Nc1cc2cc(c1)Nc1nccc(n1)-c1cccc(c1)COC/C=C/COC2
(Q) In the pair I and II , the larger recorded IC50 belongs to which? // output: label of the selected item
(A) II
